Field: pIC50. Provide a value for each of the compounds that follow.
# system: SF9 affinity purified rat FPT (Rattus norvegicus, UniProt Q02293+Q04631)
# Construct: made in house; host or cells: Sf9 insect cells
# protocolSummary: PFT (farnesyl protein transferase) inhibitory activity, radiolabeled farnesyl pyrophosphate / biotinyl peptide bead assay
# Type: biochemical
# reportedConditions: average of two tests unless n is given in parentheses; read-out: FTase, IC50
# Description: The protein:farnesyl transferase (PFT) or farnesyl protein transferase (FPT) inhibitory activity of compounds of the present invention were assayed in HEPES buffer (pH 7.4) containing 5 mM potassium phosphate and 20 μM ZnCl2. The solution also contained 5 mM DTT (dithiothreitol), 5 mM MgCl2, and 0.1% PEG 8000. […] After allowing the plate to settle for 30 minutes at room temperature, radioactivity was quantitated on a microbeta counter (Model 1450, Wallec). […]
Expect pIC50 as a plain number equal to -log10 of the molar concentration.

O=C1C(=Cc2ccsc2)CCc2cc(OCCn3ccnc3)ccc21 yielded pIC50 of 6.92

Form field pIC50, entry COc1ccc(C=C2CCc3cc(OCCn4ccnc4)ccc3C2=O)cc1 : 6.06

Kindly note the recorded pIC50 for CCN(CC)CCOc1ccc(C=C2CCc3cc(OCCn4ccnc4)ccc3C2=O)cc1 , which is 4.92

GET /value?item= O=C1CCCc2cc(OCCn3ccnc3)ccc21 &field=pIC50 returns 5.70

The value of pIC50 measured for the compound O=C(O)c1ccc(C=C2CCc3cc(OCCn4ccnc4)ccc3C2=O)cc1 turned out to be 6.22
